Test system: CCRIS mutagenicity, Ames/micronucleus/aberration tests
methodNotes: CCRIS mutagenicity studies
conditionParameters: Test System: MOUSE LYMPHOMA; Strain/Indicator: L5178Y (TK+/TK-); Metabolic Activation: RAT, LIVER, S-9, AROCLOR 1254; Method: SUSPENSION/PLATE
Activity calls are given as the source filed them. No rule for the calls is given here.
Outcome field: choose from t (active), f (inactive)

Req: Give the logged outcome of this assay for the following compound: CC(=O)Nc1ccc2c(c1)Cc1ccccc1-2
Resp: t

Req: Param item: C[O+](C)C.[Cl][Sb-]([Cl])([Cl])([Cl])([Cl])[Cl]
Resp: t

Req: Param item: N#CSCSC#N
Resp: f

Req: Param item: O=C1c2ccccc2-c2ccccc21
Resp: f

Req: Param item: Nc1ncnc2c1nc(Cl)n2[C@@H]1O[C@@H]2COP(=O)(O)O[C@H]2[C@H]1O
Resp: f

Req: Param item: Oc1ccc2c(c1)OCO2
Resp: t

Req: Param item: O=C1Nc2ccc([N+](=O)[O-])cc2C1=O
Resp: t

Req: Param item: c1cnccn1
Resp: f

Req: Param item: O=c1c(O)c(-c2ccc(O)cc2)oc2cc(O)cc(O)c12
Resp: t

Req: Param item: O=S1(=O)OC(c2cc(Br)c(O)c(Br)c2)(c2cc(Br)c(O)c(Br)c2)c2c(Br)c(Br)c(Br)c(Br)c21
Resp: f

Req: Param item: C1CS1
Resp: t

Req: Param item: CCCCOCCOCCO
Resp: f

Req: Param item: OCc1c[nH]c2ccccc12
Resp: t

Req: Param item: Cc1cc(-c2ccc(N=Nc3cc(S(=O)(=O)O)c4ccccc4c3N)c(C)c2)ccc1N=Nc1cc(S(=O)(=O)O)c2ccccc2c1N
Resp: f

Req: Param item: NO
Resp: t

Req: Param item: CCCCCCc1ccc(O)cc1O
Resp: t

Req: Param item: Cc1ccc(S(=O)(=O)NN)cc1
Resp: t

Req: Param item: OC/C=C/c1ccccc1
Resp: t

Req: Param item: CN(C)C=O
Resp: f

Req: Param item: ClC(Cl)(Cl)Cl
Resp: f

Req: Param item: Cc1c2ccccc2c(C)c2c1ccc1ccccc12
Resp: t

Req: Param item: OB(O)O
Resp: f

Req: Param item: NCCc1ccc(O)cc1
Resp: t

Req: Param item: CC1=NN(c2ccccc2)C(=O)C1
Resp: t

Req: Param item: C=CC(=O)OCC(CC)(COC(=O)C=C)COC(=O)C=C
Resp: f

Req: Param item: BrC(Br)Br
Resp: t

Req: Param item: CN(C)CCN(Cc1cccs1)c1ccccn1
Resp: f

Req: Param item: O=[Se](O)O
Resp: t

Req: Param item: Clc1nnc(Cl)c2ccccc12
Resp: t

Req: Param item: Clc1nc(Cl)nc(Nc2ccccc2Cl)n1
Resp: t

Req: Param item: CC(C)C[C@H]1C(=O)N2CCC[C@H]2[C@]2(O)O[C@](NC(=O)[C@@H]3C[C@@H]4c5cccc6[nH]cc(c56)C[C@H]4N(C)C3)(C(C)C)C(=O)N12
Resp: f

Req: Param item: O=C(O)c1ccccn1
Resp: t

Req: Param item: O
Resp: t

Req: Param item: CC(=O)Nc1ccc(S(=O)(=O)O)c2cc(S(=O)(=O)O)c(N=Nc3ccc(N=Nc4ccc(S(=O)(=O)O)cc4)c4ccc(S(=O)(=O)O)cc34)c(O)c12
Resp: t

Req: Param item: FC(F)(F)c1ccc(Cl)cc1
Resp: f

Req: Param item: O=S1(=O)OC(c2cc(Br)c(O)c(Br)c2)(c2cc(Br)c(O)c(Br)c2)c2ccccc21
Resp: f

Req: Param item: O=c1[nH]c2ccccc2o1
Resp: f

Req: Param item: O=C(CBr)c1ccccc1
Resp: t

Req: Param item: C/C=C/c1ccc(O)c(OC)c1
Resp: f

Req: Param item: c1ccc(-c2ccc(-c3ccccc3)cc2)cc1
Resp: t

Req: Param item: O=C([O-])/C=C/C(=O)[O-].[Fe+2]
Resp: f

Req: Param item: O=C(O)CC[N+](=O)[O-]
Resp: t

FYI, the data here is from PubChem BioAssay AID1259407.
